# Tested on: biotinyl-Ile-oxazolone
# MEASUREMENT_DESCRIPTION: self-aminoacylation, catalytic enhancement (BIO) (fold over background); higher = more active; k-Seq, kA / k0A0; sequences stand for … in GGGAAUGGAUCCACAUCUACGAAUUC…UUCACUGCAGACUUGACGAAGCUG
This sample holds only a part of the variants without activity.
Mark F for self-aminoacylation values under 4, and T for everything at or above.

Worked examples, 4 sequences total:
[
  {
    "CHAIN": "AUCGACCUAGGUCAUCGGGUG [Fam2.2 aminoacylation ribozyme variant]",
    "ASSIGNED_LABEL": "T"
  },
  {
    "CHAIN": "AAGUUUGAUAAUAGUCGUAAG [Fam3.1 aminoacylation ribozyme variant]",
    "ASSIGNED_LABEL": "F"
  },
  {
    "CHAIN": "AUUAGCCUGGUCAUCGAGUGA [Fam2.1 aminoacylation ribozyme variant]",
    "ASSIGNED_LABEL": "T"
  },
  {
    "CHAIN": "UAGUUAGCUAAUAGUCGCAAG [Fam3.1 aminoacylation ribozyme variant]",
    "ASSIGNED_LABEL": "F"
  }
]

stdin: Does CCACACUUCAUGCAAUCGGUG [Fam1B.1 aminoacylation ribozyme variant] have a reported self-aminoacylation of at least 4?
stdout: F

* * *

Item-by-item account of self-aminoacylation
# Test system: biotinyl-Ile-oxazolone
# MEASUREMENT_DESCRIPTION: self-aminoacylation, catalytic enhancement (BIO) (fold over background); higher = more active; k-Seq, kA / k0A0; sequences stand for … in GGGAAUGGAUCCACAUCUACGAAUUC…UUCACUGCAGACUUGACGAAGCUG
Variants at the floor of the assay were thinned out.

Reference set (7 entries):
[
  {
    "CHAIN": "CUACUGCAAACAAUCGAUCUG [Fam1A.1 aminoacylation ribozyme variant]",
    "EXPERIMENTAL_SYSTEM": "biotinyl-Ile-oxazolone",
    "self-aminoacylation": 0.705
  },
  {
    "CHAIN": "AUGACGCUGGUCAUCGAGUGA [Fam2.1 aminoacylation ribozyme variant]",
    "EXPERIMENTAL_SYSTEM": "biotinyl-Ile-oxazolone",
    "self-aminoacylation": 3.6
  },
  {
    "CHAIN": "AUUUCCCAGGUCAUCGAGUGA [Fam2.1 aminoacylation ribozyme variant]",
    "EXPERIMENTAL_SYSTEM": "biotinyl-Ile-oxazolone",
    "self-aminoacylation": 2.89
  },
  {
    "CHAIN": "AAGUUUGCUAAUCGUGGCAAG [Fam3.1 aminoacylation ribozyme variant]",
    "EXPERIMENTAL_SYSTEM": "biotinyl-Ile-oxazolone",
    "self-aminoacylation": 0.713
  },
  {
    "CHAIN": "CCACACGUCGAGCAAUCGGUC [Fam1B.1 aminoacylation ribozyme variant]",
    "EXPERIMENTAL_SYSTEM": "biotinyl-Ile-oxazolone",
    "self-aminoacylation": 1.17
  },
  {
    "CHAIN": "AUUACACUGGUCAUCUAGUGA [Fam2.1 aminoacylation ribozyme variant]",
    "EXPERIMENTAL_SYSTEM": "biotinyl-Ile-oxazolone",
    "self-aminoacylation": 3.07
  },
  {
    "CHAIN": "CUACUUCGGACAAUCGGUCUG [Fam1A.1 aminoacylation ribozyme variant]",
    "EXPERIMENTAL_SYSTEM": "biotinyl-Ile-oxazolone",
    "self-aminoacylation": 0.815
  }
]

Please examine the following record next.
stdin: Return reported self-aminoacylation for target or system biotinyl-Ile-oxazolone, item ACACACUUCAAGCAAUCUGUC [Fam1B.1 aminoacylation ribozyme variant] .
stdout: 0.759

* * *

# System: biotinyl-Ile-oxazolone
# MEASUREMENT_DESCRIPTION: self-aminoacylation, catalytic enhancement (BIO) (fold over background); higher = more active; k-Seq, kA / k0A0; sequences stand for … in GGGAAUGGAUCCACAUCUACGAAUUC…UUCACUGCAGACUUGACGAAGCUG
Fewer inactive variants are shown than the library holds.
Mark not fulfilled for self-aminoacylation values under 2, and fulfilled for everything at or above.

stdin: Does CUACUUCAAACAUUCGGUCAG [Fam1A.1 aminoacylation ribozyme variant] have a reported self-aminoacylation of at least 2?
stdout: not fulfilled

stdin: Does CUACUUCACACAACCGGUCUG [Fam1A.1 aminoacylation ribozyme variant] have a reported self-aminoacylation of at least 2?
stdout: not fulfilled

stdin: Does AUUACACUGGUCAUCGAGUGU [Fam2.1 aminoacylation ribozyme variant] have a reported self-aminoacylation of at least 2?
stdout: not fulfilled

stdin: Does AAGUUUGAUCAUAGUCGCAAG [Fam3.1 aminoacylation ribozyme variant] have a reported self-aminoacylation of at least 2?
stdout: not fulfilled

stdin: Does AUUACCCUGGUGAUCGACUGA [Fam2.1 aminoacylation ribozyme variant] have a reported self-aminoacylation of at least 2?
stdout: not fulfilled

stdin: Does CAAGUUCAAACAAUCGGUCUG [Fam1A.1 aminoacylation ribozyme variant] have a reported self-aminoacylation of at least 2?
stdout: not fulfilled

stdin: Does UUUACCCUGGUCAUCGCGUGA [Fam2.1 aminoacylation ribozyme variant] have a reported self-aminoacylation of at least 2?
stdout: fulfilled

stdin: Does AAGUUUGCUAAAAGCCGCAAG [Fam3.1 aminoacylation ribozyme variant] have a reported self-aminoacylation of at least 2?
stdout: not fulfilled

stdin: Does CUACACUUCAAGCAAUCGGUG [Fam1B.1 aminoacylation ribozyme variant] have a reported self-aminoacylation of at least 2?
stdout: fulfilled

* * *

# Test system: biotinyl-Phe-oxazolone
# MEASUREMENT_DESCRIPTION: self-aminoacylation, catalytic enhancement (BFO) (fold over background); higher = more active; k-Seq, kA / k0A0; sequences stand for … in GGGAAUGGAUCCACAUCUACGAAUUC…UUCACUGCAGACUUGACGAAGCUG
This sample holds only a part of the variants without activity.
QUANTITY_KIND: self-aminoacylation
The reply should be a number, written without any unit.

Reference set (5 entries):
[
  {
    "CHAIN": "CCACACUUCAACCAAGCGGUC [Fam1B.1 aminoacylation ribozyme variant]",
    "self-aminoacylation": 0.838
  },
  {
    "CHAIN": "AUUCGCCUACGUCAUCGGGUG [Fam2.2 aminoacylation ribozyme variant]",
    "self-aminoacylation": 44.1
  },
  {
    "CHAIN": "AUUCACCUAGGACAUUGGGUG [Fam2.2 aminoacylation ribozyme variant]",
    "self-aminoacylation": 25.8
  },
  {
    "CHAIN": "AAGUUUGCUAAUAGUCCCAUG [Fam3.1 aminoacylation ribozyme variant]",
    "self-aminoacylation": 0.885
  },
  {
    "CHAIN": "CCACACUUCAUGCAAUCGGUG [Fam1B.1 aminoacylation ribozyme variant]",
    "self-aminoacylation": 27
  }
]

stdin: Give the reported self-aminoacylation for this sequence. CUACUUCAAACGAUCCGUCUG [Fam1A.1 aminoacylation ribozyme variant]
stdout: 0.594

stdin: Give the reported self-aminoacylation for this sequence. CCACCCCUCAAGCAAUCGGUC [Fam1B.1 aminoacylation ribozyme variant]
stdout: 1.64

stdin: Give the reported self-aminoacylation for this sequence. CCACACAUCAAGCAAUCGAUC [Fam1B.1 aminoacylation ribozyme variant]
stdout: 0.914

* * *

# Tested on: biotinyl-Val-oxazolone
# MEASUREMENT_DESCRIPTION: self-aminoacylation, catalytic enhancement (BVO) (fold over background); higher = more active; k-Seq, kA / k0A0; sequences stand for … in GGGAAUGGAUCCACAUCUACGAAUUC…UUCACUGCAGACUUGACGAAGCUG
Fewer inactive variants are shown than the library holds.
Class (by self-aminoacylation) -- low value: < 2; medium value: ≥ 2 and < 4; high value: ≥ 4

Worked examples, 5 sequences total:
[
  {
    "CHAIN": "AUUCACCUAGAUCAUCGGUUG [Fam2.2 aminoacylation ribozyme variant]",
    "ASSIGNED_LABEL": "low value"
  },
  {
    "CHAIN": "AGUACCCAGGUCAUCGAGUGA [Fam2.1 aminoacylation ribozyme variant]",
    "ASSIGNED_LABEL": "medium value"
  },
  {
    "CHAIN": "AUUCGCAUAGGUCAUCGGGUG [Fam2.2 aminoacylation ribozyme variant]",
    "ASSIGNED_LABEL": "high value"
  },
  {
    "CHAIN": "AUUCACCUAAGCCAUCGGGUG [Fam2.2 aminoacylation ribozyme variant]",
    "ASSIGNED_LABEL": "medium value"
  },
  {
    "CHAIN": "AUUACCCUGGACAUUGAGUGA [Fam2.1 aminoacylation ribozyme variant]",
    "ASSIGNED_LABEL": "high value"
  }
]

stdin: Each sequence maps to one class by self-aminoacylation. Which class for CCACACUUCAAGCUAUCGGCC [Fam1B.1 aminoacylation ribozyme variant] ?
stdout: low value

stdin: Each sequence maps to one class by self-aminoacylation. Which class for CGACUUCAUACAAUCGGUCUG [Fam1A.1 aminoacylation ribozyme variant] ?
stdout: low value

stdin: Each sequence maps to one class by self-aminoacylation. Which class for AAGUUGGCUCAUAGUCGCAAG [Fam3.1 aminoacylation ribozyme variant] ?
stdout: low value
